- measurement_description: molar heat capacity at constant pressure
- applied_conditions: 240.15 K; 101.33 kPa; Crystal; Small sample (50 mg) DSC
Numbers after ± are expanded uncertainties.
# molar heat capacity at constant pressure per record follows
outcome_measure: molar heat capacity at constant pressure

[[record]]
compound = "OC[C@H](O)C(O)[C@@H](O)CO [L-(-)-arabitol]"
recorded_value = "166.04 ± 33 J/K/mol"

[[record]]
compound = "OC[C@@H](O)C(O)[C@H](O)CO [D-arabitol]"
recorded_value = "161.64 ± 13 J/K/mol"

[[record]]
compound = "OC[C@@H](O)[C@@H](O)[C@H](O)[C@H](O)CO [D-mannitol]"
recorded_value = "187.46 ± 30 J/K/mol"

[[record]]
compound = "O[C@H]1[C@H](O)[C@@H](O)[C@H](O)[C@@H](O)[C@H]1O [cis-1,2,3,5-trans-4,6-cyclohexanehexol]"
recorded_value = "173.81 ± 24 J/K/mol"

[[record]]
compound = "OC[C@@H](O)[C@@H](O)CO [meso-1,2,3,4-butanetetrol]"
recorded_value = "134.1 ± 16 J/K/mol"

[[record]]
compound = "OC[C@@H](O)[C@H](O)[C@@H](O)CO [xylitol]"
recorded_value = "168.23 ± 10 J/K/mol"


---

# molar heat capacity at constant pressure per record follows
- measurement_description: molar heat capacity at constant pressure
- applied_conditions: 188.15 K; 101.33 kPa; Crystal; Small sample (50 mg) DSC
outcome_measure: molar heat capacity at constant pressure (J/K/mol)

[[record]]
molecule = "OC[C@H](O)C(O)[C@@H](O)CO [L-(-)-arabitol]"
outcome_measure = "molar heat capacity at constant pressure"
recorded_value = 129.04

[[record]]
molecule = "OC[C@@H](O)C(O)[C@H](O)CO"
outcome_measure = "molar heat capacity at constant pressure"
recorded_value = 120.48

[[record]]
molecule = "OC[C@@H](O)[C@H](O)[C@@H](O)CO"
outcome_measure = "molar heat capacity at constant pressure"
recorded_value = 129.73

[[record]]
molecule = "O[C@H]1[C@H](O)[C@@H](O)[C@H](O)[C@@H](O)[C@H]1O [cis-1,2,3,5-trans-4,6-cyclohexanehexol]"
outcome_measure = "molar heat capacity at constant pressure"
recorded_value = 132.1

[[record]]
molecule = "OC[C@@H](O)[C@@H](O)[C@H](O)[C@H](O)CO"
outcome_measure = "molar heat capacity at constant pressure"
recorded_value = 143.51

[[record]]
molecule = "OC[C@@H](O)[C@@H](O)CO"
outcome_measure = "molar heat capacity at constant pressure"
recorded_value = 104.81


---

- measurement_description: molar heat capacity at constant pressure
- applied_conditions: 140 K; 101.33 kPa; Crystal; relaxation calorimetry
Lab note: compare molar heat capacity at constant pressure against 100 J/K/mol. Equal or greater, write true (1). Smaller, write false (0).

[[record]]
compound = "OC[C@H](O)C(O)[C@@H](O)CO [L-(-)-arabitol]"
class = "true (1)"

[[record]]
compound = "OC[C@@H](O)[C@@H](O)[C@H](O)[C@H](O)CO"
class = "true (1)"

[[record]]
compound = "OC[C@@H](O)[C@H](O)[C@@H](O)CO"
class = "true (1)"

[[record]]
compound = "OC[C@@H](O)[C@@H](O)CO"
class = "false (0)"

[[record]]
compound = "OC[C@@H](O)C(O)[C@H](O)CO"
class = "true (1)"

